Experiment: chemical genetic growth profiling, strain panel (AID 1159580);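 note: tested at 20 µM; growth read once vehicle control cultures reached saturation at 30 °C; 1 = growth at the plate median or of vehicle wells; lower values mean less growth of the strain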
Details: S. cerevisiae deletion strains, growth OD, locus YMR205C, strain PFK2, hits give low values
Out of some 5,500 compounds screened, about 2,000 (36%) were called active. About 18% were inconclusive and are not listed. The list shows a part of the results.
attribute measured: normalized growth
Please give only the number in your answer, with no unit.

Q) Find the measured normalized growth of NC[C@H]1O[C@H](O[C@H]2C(O[C@@H]3O[C@H](CO)[C@@H](O)[C@H]3O)[C@@H](O)[C@H](N)C[C@@H]2N)[C@H](N)[C@@H](O)[C@@H]1O (some centres not stated) and report it.
A) 0.962

Q) Complete the entry with normalized growth for NC[C@H]1O[C@H](O[C@H]2[C@H](O)[C@@H](O[C@H]3O[C@H](CO)[C@@H](O)[C@H](N)[C@H]3O)[C@H](N)C[C@@H]2N)[C@H](N)C[C@@H]1O
A) 0.965

Q) Identify normalized growth associated with the molecule CC1=C(O)C(=O)C=C2C1=CC=C1[C@@]2(C)CC[C@@]2(C)[C@@H]3C[C@](C)(C(=O)O)CC[C@]3(C)CC[C@]12C
A) 0.337

Q) Assign normalized growth to the following record: COc1cc2c(cc1O)CCNC2C (configuration not stated)
A) 0.991

Q) Supply measured normalized growth of CCCc1nc2c(C)cc(-c3nc4ccccc4n3C)cc2n1Cc1ccc(-c2ccccc2C(=O)O)cc1 in your reply.
A) 1

Q) Consider the molecule CN1C(=O)CCS(=O)(=O)C1c1ccc(Cl)cc1 (configuration not stated) and give its recorded normalized growth.
A) 0.947

Q) Specify measured normalized growth for CN[C@@H]1[C@@H](O[C@H]2O[C@H](CO)[C@@H](N)[C@H](O)[C@H]2O)O[C@H]2C[C@@H](N)[C@H](O[C@H]3[C@H](O)[C@@H](O)[C@H](N)C[C@@H]3N)O[C@@H]2[C@@H]1O .
A) 1.02

----------
Test: chemical genetic growth profiling, strain panel (AID 1159580);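 note: tested at 20 µM; growth read once vehicle control cultures reached saturation at 30 °C; 1 = growth at the plate median or of vehicle wells; lower values mean less growth of the strain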
Conditions: S. cerevisiae deletion strains, growth OD, locus YER167W, strain BCK2
Out of some 5,500 compounds screened, about 2,000 (36%) were called active. Roughly 18% stayed inconclusive and do not appear here. No stated cut-off is given here; in the data, active means normalized growth mostly below about 0.91 (no sharp cut-off); inconclusive means no clear call, values can overlap the other calls; inactive means mostly above about 0.92. The list shows a part of the results.
Result category, one only: active, inactive

Q) Call for entry CC(=O)[C@@]1(O)CCC2C3CCC4=CC(=O)CC[C@]4(C)C3CC[C@@]21C (some centres not stated) :
A) inactive

Q) What did this assay record as the result for CC1=CC(=O)C2=C(C)CC(O)C3C(C)C(=O)OC3C12 (configuration not stated) ?
A) inactive

Q) Hi, sorry to bother you, what did the test record for C1CCC(C(CC2CCCCN2)C2CCCCC2)CC1 (configuration not stated) ?
A) active

Q) Hello, I am checking results. What call was entered for CCCCc1nc(Cl)c(CO)n1Cc1ccc(-c2ccccc2-c2nn[nH]n2)cc1 ?
A) inactive

Q) Recorded test call requested for CN(C)CCc1c[nH]c2ccc(CS(=O)(=O)N3CCCC3)cc12
A) inactive

Q) Look up the recorded call for CC(=O)CC1CCCCN1 (configuration not stated) in this test.
A) inactive

Q) So what was the verdict on Cc1cc(C(C)(C)C)cc(C)c1CC1=NCCN1 in this test?
A) inactive

----------
Experiment: chemical genetic growth profiling, strain panel (AID 1159580);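 note: tested at 20 µM; growth read once vehicle control cultures reached saturation at 30 °C; 1 = growth at the plate median or of vehicle wells; lower values mean less growth of the strain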
Conditions: S. cerevisiae deletion strains, growth OD, locus YGL078C, strain dbp3, hits give low values
Screen size: about 5,500 compounds; about 2,000 (36%) were called active. Not shown: some 18% with an inconclusive outcome. This is one part of the list.
Please go through the items and note down their normalized growth.
Note: the reply should be a number with no unit written.

Q) Identify normalized growth associated with the molecule Cc1c(NC(=O)c2cccnc2)c(=O)n(-c2ccccc2)n1C
A) 0.988

Q) Note normalized growth for the molecule shown: Cc1cc(C(C)(C)C)cc(C)c1CC1=NCCN1
A) 1

Q) Give recorded normalized growth. C=C(C)[C@@H]1CC[C@]2(CO)CC[C@]3(C)[C@H](CCC4[C@@]5(C)CC[C@H](O)C(C)(C)C5CC[C@]43C)C12 (stereo partly specified)
A) 0.989

Q) Please report normalized growth for the following molecule: CN1CCN(CC(=O)N2c3ccccc3C(=O)Nc3cccnc32)CC1
A) 1.01

Q) Please give the documented normalized growth of O=C(O)[C@H](O)[C@@](O)(Cc1ccc(O)cc1)C(=O)O
A) 1.01

Q) Give the reported normalized growth for this molecule. COc1cc2c(cc1O)CCNC2C (stereo unspecified)
A) 0.984

Q) Let me know recorded normalized growth for Cc1cc(C(C)(C)C)c(O)c(C)c1CC1=NCCN1 , thanks.
A) 1.01

Q) # return recorded normalized growth for input CC1(C)C(=O)[C@@H]2O[C@@H]2[C@@]2(C)C1CC(=O)[C@]1(C)C2CC[C@@]2(C)[C@H](c3ccoc3)OC(=O)[C@H]3O[C@]321 (stereo partly specified)
A) 0.966

Q) Please list normalized growth recorded for the molecule COc1cc(/C=C/C=O)cc(OC)c1OC
A) 1.01

Q) Given the molecule O=C(O)c1cc([N+](=O)[O-])ccc1NCCCc1ccccc1 , write its reported normalized growth.
A) 0.895

Q) Return reported normalized growth. Input molecule: NC(=O)N1c2ccccc2C=Cc2ccccc21
A) 0.991
